Listing of entries alongside the reported growth.
# Tested on: NCI-H226 lung
# Run description: NCI-60 one-dose screen, 48 h (100 = growth as untreated, 0 = no growth, -100 = all killed)
# Experimental conditions: 10 µM unless noted
# Method: Growth inhibition of the NCI-H226 human Non-Small Cell Lung tumor cell line is measured as a screen for anti-cancer activity. Cells are grown in 96 well plates and exposed to the test compound for 48 hours. Compounds are tested at a single concentration, which is 10^-5 M for most compounds. The reported endpoint is percent growth (GI% or GIPRCNT), where numbers from 0 - 100% represent growth inhibition, and numbers from -100% - 0 represent cell death. […]
Compounds without any hit were thinned out: in the full panel of roughly 83,000, 20% have a hit. Active and inactive are the calls of the source. The calls were made as follows: active = growth percent below 10; inactive = the rest.

Compound: O=C(Nc1cccc(-n2ccc3c(NC(=O)c4ccccc4)nccc32)c1)c1ccc(N2CCOCC2)c(C(F)(F)F)c1
Test value: 33.5% (inactive)
--
Compound: O=C1/C(=C/c2ccccc2)SC(=Nc2ccccc2)N1Nc1ccccc1
Test value: -40.1% (active)
--
Compound: NNc1ccc(S(N)(=O)=O)cc1
Test value: 93.7% (inactive)
--
Compound: CCCCCCCCCCCC1=NC(C)(C)CN1CC(C)O (stereo unspecified)
Test value: 92.8% (inactive)
--
Compound: O=C(O/C(=C/c1ccccc1)C(F)(F)F)c1ccccc1
Test value: 102% (inactive)
--
Compound: COc1ccccc1/C=N\Nc1ccc([N+](=O)[O-])cn1
Test value: 98.7% (inactive)

Input: Given `Clc1ccc(-c2cnc3nonc3n2)s1` , state its recorded growth.
Output: 100% (inactive)

---

# System: LOX IMVI melanoma
# Run description: NCI-60 one-dose screen, 48 h (100 = growth as untreated, 0 = no growth, -100 = all killed)
# Experimental conditions: 10 µM unless noted
Compounds without any hit were thinned out: in the full panel of roughly 83,000, 20% have a hit.
Give criterion met when the value for growth is at least 80%. Give criterion not met when it is less.

Answered cases to consult:
Compound: C=C1C(=O)O[C@H]2[C@H]1CC/C(COC(=O)NCc1[nH]nc3ccccc13)=C\CC[C@@]1(C)O[C@@H]21
System name: LOX IMVI melanoma
Assigned category: criterion not met
--
Compound: CCC(=O)OCc1ccc(OC)cc1
System name: LOX IMVI melanoma
Assigned category: criterion met
--
Compound: ClCc1c(Cl)c(Cl)c(Cl)c(CCl)c1Cl
System name: LOX IMVI melanoma
Assigned category: criterion not met

Input: Does the compound `Cc1ccc(OC2=C(C#N)C(=N)N3C(=NN2)Sc2c(C)ccc(C)c23)cc1` have recorded growth that is 80% or more?
Output: criterion met

Input: Does the compound `CN(C)CCCn1c(=O)c2cc([N+](=O)[O-])ccc2c2cnc3[nH]ccc3c21` have recorded growth that is 80% or more?
Output: criterion not met

Input: Does the compound `Cc1c(C(=O)Nc2ccccc2F)sc2c(=O)[nH]cnc12` have recorded growth that is 80% or more?
Output: criterion met

---

# Tested on: M14 melanoma
# Run description: NCI-60 one-dose screen, 48 h (100 = growth as untreated, 0 = no growth, -100 = all killed)
# Experimental conditions: 10 µM unless noted
Compounds without any hit were thinned out: in the full panel of roughly 83,000, 20% have a hit.
Listing of entries alongside the reported growth.
The reply should be a number in %, with the unit left off.

Examples with answers:
Compound: Nc1c(C(=O)C[C@@H](N)CO)ccc2c1C(=O)CCO2
Units text: %
Test value: 48.6
//
Compound: CCCCCCCCCCCC1=NC(C)(C)CN1CCO
Units text: %
Test value: 48.4
//
Compound: CN1C(=O)N(C)C2C1NN=c1s/c(=C\c3ccc(C(F)(F)F)cc3)c(=O)n12 (stereo not given)
Units text: %
Test value: 16
//
Compound: COC1(OC)C2(Cl)CCC1(Cl)C(Cl)=C2Cl
Units text: %
Test value: 96.9
//
Compound: Cc1ccc(NC(=O)c2sc3nc4c(cc3c2N)C(=O)CCC4)cc1Cl
Units text: %
Test value: 122
//
Compound: COc1ccc2nc(C)cc(Sc3nc4ccccc4s3)c2c1
Units text: %
Test value: 65.5

Proceeding to the next compound to report its growth.
Input: Find growth (M14 melanoma) for the entry CC1=CCC2C1CC=C(C)C(CC[C@H]1[C@@](C)(O)CCC3OC(C)(C)[C@H](OC(=O)c4ccccc4)CC[C@@]31C)C2(C)C (stereo not given in full)
Output: 90.1
